B1: TPR t1 (parent)
chain: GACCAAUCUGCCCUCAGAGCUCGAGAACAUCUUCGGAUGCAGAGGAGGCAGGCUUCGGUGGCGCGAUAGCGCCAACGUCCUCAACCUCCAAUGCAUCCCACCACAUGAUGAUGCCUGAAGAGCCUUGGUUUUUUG

# Variants of: B1
# test_method_notes: polymerase ribozyme fitness, log enrichment relative to wild type (log ratio); higher = more active; in vitro selection for triplet polymerase activity
measurement_kind: polymerase ribozyme fitness (log ratio)

Here are 3 variants together with their reported answers.
{"columns": ["variant_designation", "polymerase ribozyme fitness (log ratio)"],
 "data": [
  ["G36U G69U A75U", -0.726],
  ["G48U A90G U112A", -2.03],
  ["C3G C12G A83C U106A", -2.23]
]}

Lookup result for A18U G113C ; measured polymerase ribozyme fitness (log ratio): -3.57

# polymerase ribozyme fitness (log ratio) of A2G G42A U54G C80A U112A = -6.02

Item: G42A C56G C64U G122A | polymerase ribozyme fitness (log ratio): -3.76

The variant identified as G69A U78A G93A registered its polymerase ribozyme fitness (log ratio) at -4.02

Consider A27G C73A . Its measured polymerase ribozyme fitness (log ratio) is -2.84

// polymerase ribozyme fitness (log ratio) value for U32A C56G : -3.79

Field polymerase ribozyme fitness (log ratio) (entry C12U C62G U126A ) reads -2.76

Please fill in: polymerase ribozyme fitness (log ratio) reported for C8G G36U U54C A91C C124A = -0.94
